Data provenance is paper PMC10397247.

# tested target: T1, P9
# T1 chain: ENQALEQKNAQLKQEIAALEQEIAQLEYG
# experiment notes: two-hybrid library CC1;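 also: natural log of median RNA to DNA barcode read ratio; higher means stronger binding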
# assay context: mean of both orientations
Respond with T for interaction score values of -2 and above, F for values below.

binder: SPEDENAALEEKIAQLKQKNAALKEEIQALEYG [P5]
answer label: F

binder: ENSQLEEKISQLKQKNSRLKEEIARLEYGC [P5SC1]
answer label: F

binder: KNAQLKEKIAALKEKIQQLKEENQALEYG [P12]
answer label: T

binder: SPEDEIQALEEKNAQLKQEIAALEEKNQALKYG [P7]
answer label: F

binder: SPEDKIAQLKQKIQALKQENQQLEEENAALEYG [P4]
answer label: F
